# measured_target: HDAC2 (Chlorocebus sabaeus)
# Sequence (A0A0D9RT33 1-488): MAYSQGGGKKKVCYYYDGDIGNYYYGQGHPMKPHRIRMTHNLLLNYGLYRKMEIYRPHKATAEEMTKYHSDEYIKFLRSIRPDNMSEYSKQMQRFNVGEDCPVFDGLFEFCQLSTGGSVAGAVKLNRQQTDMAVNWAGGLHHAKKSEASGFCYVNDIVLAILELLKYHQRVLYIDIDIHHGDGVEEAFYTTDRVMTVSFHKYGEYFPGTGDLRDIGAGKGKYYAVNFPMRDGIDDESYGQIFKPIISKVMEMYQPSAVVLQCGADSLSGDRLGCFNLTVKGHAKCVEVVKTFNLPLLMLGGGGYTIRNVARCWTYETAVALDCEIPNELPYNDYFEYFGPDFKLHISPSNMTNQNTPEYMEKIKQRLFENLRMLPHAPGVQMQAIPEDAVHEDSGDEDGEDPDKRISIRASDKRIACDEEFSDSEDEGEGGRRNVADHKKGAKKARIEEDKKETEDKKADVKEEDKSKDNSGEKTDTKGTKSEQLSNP
# protocol_text: Direct inhibition of HDAC2 activity in Vero cells
# stated_conditions: read-out: IC50 of directly inhibiting HDAC2 activity
readout_name: IC50

[ask] So what does the record say about IC50 for `CCCC(CCC)C(=O)O` ?
[reply] ≥ 2500 µM
